Tested on: ACHN renal
Assay: NCI-60 one-dose screen, 48 h
Details: 10 µM unless noted
About 83,000 compounds went through this panel and 20% of them were active in at least one assay; those are over-represented in the sample as a whole. Active and inactive are the calls of the source. The calls were made as follows: active = growth percent below 10; inactive = the rest.
Parameter call: string, one of Y = active, N = inactive

compound	label.value
Cn1c(O)c(N=NC(=O)c2cc(-c3ccccc3)on2)c2ccccc21	N
COc1ccc2[nH]cc(-c3noc(C(=O)c4cn(C)c5ccc(F)cc45)n3)c2c1	N
COc1ccc(CCNc2nc3c(c(=O)n(Cc4ccc(Br)cc4)c(=O)n3C)n2C)cc1OC	N
C=CC(=O)Nc1cccc(-c2nc(SC)nc(Nc3cccc(OC)c3)c2C#N)c1	N
CN(C)S(=O)(=O)c1ccc(S(=O)(=O)Nc2cccc(Cl)c2N2CCCCC2)cc1	N

Just curious, what result did N#CN1CC[C@H](C(=O)Nc2cc3cc(C(N)=O)ccc3cn2)C1 get here?
Y

Just curious, what result did Cc1ccc(C(SCC(N)C(=O)O)(c2ccccc2)c2ccc(C)cc2)cc1 (stereo not given) get here?
N

Just curious, what result did CC1=C(O)C(=O)C(C(C#N)(C#N)C(C#N)C#N)C1 (stereo not given) get here?
N

Just curious, what result did CN1CCN(c2ccc(Nc3c4ccccc4nc4ccccc34)cc2)CC1 get here?
N

Just curious, what result did Nc1nc2ccc3[nH]ncc3c2c2c1CCCC2 get here?
Y
